Reported switch fluorescence ratio by item:
system: ATP; test: switch fluorescence ratio, 500 uM ATP over buffer (Cy3 cluster intensity, sum of 5 cycles each) (fold (ratio)); higher = stronger signal-on switching upon ATP binding; sequences stand for … in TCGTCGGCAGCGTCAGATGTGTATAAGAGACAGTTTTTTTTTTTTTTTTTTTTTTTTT…TC; details: aptamer strand: ATP DNA aptamer (quencher-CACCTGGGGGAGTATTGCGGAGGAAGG + anchor), 100 nM annealed; ATP concentration: 500 uM;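 note: ATP exposure 15 min at 22 °C before imaging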

sequence_data | tested_on | switch fluorescence ratio
TTCTACAGTA | ATP | 1.04
CAAAACGGTT | ATP | 1.02
GAAAATAGAT | ATP | 0.966
AGGGTATTAT | ATP | 0.987
AAGCGGGAGG | ATP | 1.02
TTTGTCAGAC | ATP | 1.03
TTTATATTGG | ATP | 1.03
CTGGAGGATA | ATP | 1.12
GATACTCAGC | ATP | 1.06
